Please go through the items and note down their TGI.
test system: SNB-75 CNS; assay: NCI tumour cell line growth inhibition, 48 h
Where a SMILES comes first, the peptide text is derived from it. [ ]: non-standard residue; d: D form. The star is where a group is joined. Phe(4-NO2) = N[CH](Cc1ccc([N+](=O)[O-])cc1)C(=O)O; Boc = CC(C)(C)OC(=O)*

Solved entries:
Compound | Result
CNCCNc1nc2ccccc2c2c(=O)c3cccc(C)c3sc12 | 8.49 µM
COc1ccc2c(c1)C(=O)c1c-2c(N2CCN(C(=O)CCNCCNCCO)CC2)nc2ccccc12 | 37.4 µM
O=C(NNC(=O)c1ccccc1O)c1ccco1 | > 100 µM
CC(=O)OCC1OC(Oc2cc(C)c(O)cc2C/C=C(\C)CC/C=C(\C)C[C@@H](C=C(C)C)OC(C)=O)C(O)C(OC(C)=O)C1OC(C)=O (stereo partly drawn) | 48.2 µM

Would you mind listing TGI for each of the following compounds?
1. COC(=O)C(Cc1nc2ccccc2[nH]c1=O)C(=O)C(=O)Nc1ccc(F)cc1 (stereo not drawn)
2. COc1ccc2nc3c([N+](=O)[O-])ccc(NCCN(C)C)c3c(NCCN(C)C)c2c1
3. CCCc1n(Cc2ccc3ccccc3n2)cc[n+]1Cc1ccc2ccccc2n1
4. CCCCCCC1CC(=O)C1(Cl)Cl (stereo not drawn)
5. COc1ccc(/C=C2\CCC(Cc3ccccc3)(CN(C)C)C2=O)cc1 (stereo not drawn)

1. > 100 µM
2. 3.51 µM
3. 8.7 µM
4. 36 µM
5. > 100 µM

Would you mind listing TGI for each of the following compounds?
1. COC(=O)C(/C(=N/N)C(=O)Nc1cccc(O)c1)c1nc2ccccc2[nH]c1=O (stereo not drawn)
2. O=C(Nc1ccccc1)Nc1ccc(Cl)c(Cl)c1
3. Cc1c2cc[n+](C)cc2c(C)c2c1oc1ccccc12
4. N#CC1C(=O)NC(=O)C1=O (stereo not drawn)
5. O=c1[nH]c(SCc2ccccc2[N+](=O)[O-])nc2nc[nH]c12
6. C#Cc1ccc(-n2c(/C=C/c3ccc4ccccc4c3)nc3ncccc3c2=O)cc1

> 100 µM
> 100 µM
5.49 µM
> 100 µM
> 100 µM
> 100 µM

Would you mind listing TGI for each of the following compounds?
1. COC1=CC2CCN3Cc4cc5c(cc4C(C1O)C23)OCC5 (stereo not drawn)
2. CC(NC(=O)OC(C)(C)C)C(=O)NC(Cc1ccccc1)C(=O)NCC(=O)Oc1c(Cl)c(Cl)c(Cl)c(Cl)c1Cl (stereo not drawn)
3. CCN1C(=O)N(CC)C2C1NN=c1s/c(=C\c3ccc(OC)cc3)c(=O)n12 (stereo not drawn)
4. COC(=O)N/N=C(/c1nc2ccc([N+](=O)[O-])cc2[nH]c1=O)C(O)c1ccc(OC)c(OC)c1 (stereo not drawn)
5. O=S(=O)(Oc1ccc2ccccc2c1-c1c(OS(=O)(=O)C(F)(F)F)ccc2ccccc12)C(F)(F)F
6. NC(=O)c1cc([N+](=O)[O-])cc([N+](=O)[O-])c1

["6.24 µM", "> 100 µM", "2.84 µM", "> 100 µM", "> 100 µM", "> 100 µM"]

Would you mind listing TGI for each of the following compounds?
1. COc1cc(/C=C/c2ccccn2)cc(OC)c1OC
2. C=C(CO)[C@H]1Oc2ccc(C(C)=O)cc2[C@@H]1O
3. CC(C)(C)OC(=O)NC(CS(=O)(=O)O)C(=O)O (stereo not drawn)
4. CCSc1nc(-c2cccs2)nc2ccc(I)cc12

1. > 10 µM
2. > 100 µM
3. > 100 µM
4. > 100 µM

Would you mind listing TGI for each of the following compounds?
1. CN1CCN(c2ccc(Nc3ncc4cc5n(c4n3)C3(CCCCC3)CNC5=O)nc2)CC1
2. Nc1c(Br)cc(-c2nc3ccccc3s2)cc1Br
3. CC(C)COC(c1ccc2c(c1)OCO2)C(C)Br (stereo not drawn)
4. NCC1(N2CCOCC2)C2CCCC21CNc1ccccc1 (stereo not drawn)
5. C[N+]1(C)C[C@@H](O)C[C@@H]1C(=O)[O-]
6. C=C1CC(C)(COc2ccc3c(C)cc(=O)oc3c2)OC1=O (stereo not drawn)

["4.54 µM", "> 100 µM", "55.7 µM", "> 100 µM", "> 100 µM", "16.3 µM"]

Would you mind listing TGI for each of the following compounds?
1. Cn1cc(C2=C(c3c(S(C)=O)n(C)c4ccccc34)C(=O)NC2=O)c2ccccc21 (stereo not drawn)
2. CC1CC(Br)C(=O)O1 (stereo not drawn)
3. CC1(C)CC(N2CCN(C3CC(C)(C)NC(C)(C)C3)CC2)CC(C)(C)N1
4. COC(CC1(OC)OC(=O)C=C1N)OC (stereo not drawn)
5. O=C1/C(=C/c2ccccc2[N+](=O)[O-])COc2ccc(O)c(O)c21
6. COC(=O)CCC(NC(=O)OC(C)(C)C)C(=O)NC(Cc1ccc([N+](=O)[O-])cc1)C(=O)NC(CCC(=O)OC)C(=O)OC (stereo not drawn) (Boc-Glu(OMe)-[Phe(4-NO2)]-Glu(OMe)-OMe; configuration not given here)
7. CNC(C)Cc1ccccc1OC (stereo not drawn)
8. Nc1nc(OCC2CCCCC2)c2[nH]cnc2n1

1: 22.3 µM; 2: > 100 µM; 3: > 100 µM; 4: > 100 µM; 5: 6.17 µM; 6: 80.9 µM; 7: > 100 µM; 8: > 81 µM

Would you mind listing TGI for each of the following compounds?
1. NC(=O)c1ncn(Cc2ccccc2)c1CNC(N)=S
2. Nc1ccc(C(=O)Nc2ccccc2N)cc1
3. O=C(O)COc1ccc(C(=O)/C(SS/C(C(=O)c2ccc(OCC(=O)O)c(Cl)c2Cl)=C2\C=C(c3ccccc3Cl)SS2)=C2/C=C(c3ccccc3Cl)SS2)c(Cl)c1Cl

> 100 µM
> 93.1 µM
> 100 µM

Report measured TGI; entry is "Cc1ccc2nc3c(C)cc(=O)cc-3sc2c1"
69.2 µM

###

system: MDA-MB-435; assay: NCI tumour cell line growth inhibition, 48 h
Readout: TGI

Solved entries:
Compound | Result
Cc1cc2c(cc1Cl)N1C(=O)NS(=O)(=O)N=C1NS2(=O)=O | > 100 µM
N=C1/C(=C2\Nc3ccccc3S2)CC(=O)N1c1ccc(SC(F)F)cc1 | > 100 µM
COc1ccc(/C=C2/CN(CCC#N)C/C(=C\c3ccc(OC)cc3)C2=O)cc1 | > 100 µM
CC(C)[C@H](C(=O)O[C@@H]1/C=C/C(=O)O[C@@H](C)CCC/C=C/[C@@H]2C[C@H](O)C[C@H]21)N(C)C | > 55.8 µM

Next compound, TGI to be filled in.
Lab note: record TGI of CSc1nc(Br)nc2ncn(C3CC(Oc4ccc(C)cc4)C(COc4ccc(C)cc4)O3)c12 (stereo not given) tested on MDA-MB-435.
> 100 µM

###

system: LOX IMVI melanoma; test: NCI tumour cell line growth inhibition, 48 h
Readout: GI50

Compound | Measured On | Result
CC(=O)C(C=O)C(C)=O.CC(=O)CC(C)=O.CC(=O)CC(C)=O.[Ru] | LOX IMVI melanoma | 13.6 µM
COc1ccc2nc3cc(Cl)ccc3c(Nc3cc(C(C)C)c(O)cc3C)c2c1 | LOX IMVI melanoma | 1.79 µM
OCc1ccc(N(Cc2ccc(F)cc2)CC2CCC2)cc1Cl | LOX IMVI melanoma | 14.7 µM

Would you mind listing GI50 for each of the following compounds?
1. COc1cc(NC(C)CCCN2C(=O)c3ccccc3C2=O)c2ncccc2c1OC (centres undefined)
2. O=C1N=C(Nc2nc(-c3csc(NC4=NC(=O)/C(=C\c5ccc(Cl)cc5)S4)n3)cs2)S/C1=C/c1ccc(Cl)cc1
3. N=C1/C(=C2\Nc3ccccc3S2)CC(=O)N1c1ccc(SC(F)F)cc1
4. CC/C(=N/N=C(N)N)c1ccc(NC(=O)Nc2ccc(/C(CC)=N/N=C(N)N)cc2)cc1
5. CN1CCN(c2ccc(Nc3ncc4cc5n(c4n3)C3(CCCCC3)CNC5=O)nc2)CC1
6. COC(=O)[C@]12CC[C@@H](C)[C@H](C)[C@@H]1C1=CC[C@@H]3[C@@]4(C)CC(=O)[C@H](O)[C@@](C)(CO)[C@@H]4C(=O)C[C@@]3(C)[C@]1(C)CC2
7. N=C1C(c2nc3ccccc3s2)=C(O)CN1c1cc(Cl)cc(Cl)c1

28.2 µM
8.34 µM
2.21 µM
9.41 µM
0.589 µM
12.2 µM
> 100 µM

Would you mind listing GI50 for each of the following compounds?
1. CNCCNc1nc2ccccc2c2c(=O)c3cccc(C)c3sc12
2. N#Cc1c(N)c(C#N)c2c(c1-c1ccc(Cl)cc1)COc1ccc(F)cc1-2
3. O=C1NC(=N[C@H](CO)c2ccccc2)S/C1=C\c1ccc2ncccc2c1
4. N[C@@H](CSSC[C@H](N)C(=O)N1CCn2cc(-c3ccccc3)nc2[C@@H]1CC1CCCCC1)C(=O)N1CCn2cc(-c3ccccc3)nc2[C@@H]1CC1CCCCC1
5. Fc1ccc(-c2nn3c(COc4ccc(Cl)cc4Cl)nnc3s2)cc1Oc1ccccc1
6. CCN1C(=O)N(CC)C2C1NN=c1s/c(=C\c3ccc(OC)cc3)c(=O)n12 (centres undefined)
7. CNCCN(C)Cc1cn[nH]c1-c1ccc(OC2CC(OCCC3CCOCC3)C2)cc1 (centres undefined)
8. COc1c2ccccc2c(O)c2c(=O)ccn(C)c12

["0.791 µM", "43.9 µM", "2.41 µM", "1.34 µM", "14.6 µM", "0.233 µM", "60.1 µM", "2.02 µM"]

Report measured GI50; entry is Cn1cc(C2=C(c3c(S(C)=O)n(C)c4ccccc34)C(=O)NC2=O)c2ccccc21 (centres undefined)
13.7 µM
